The measurements presented in this section are drawn from patent US4816471A.

Exercise: state measured LD50 for each of the compounds provided.
experiment: acute toxicity in the mouse; details: in vivo, P.O. (oral)
Where a name gives a salt, the structure may show the parent alone.

// sample CNS(=O)(=O)c1ccc(OC)c(C(=O)NCC2CCCN2CC2=CCCCCC2)c1 (stereo not shown) , its LD50 was 312 to 330 mg/kg

// sample CCS(=O)(=O)c1cc(C(=O)NCC2CCCN2CC2=CCCCC2)c(OC)cc1N (stereo not shown) , its LD50 was 510 to 555 mg/kg

// sample CNS(=O)(=O)c1cc(OC)c(OC)c(C(=O)NCC2CCCN2CC2=CCCCC2)c1 (stereo not shown) , its LD50 was 540 to 560 mg/kg

// sample CNS(=O)(=O)c1ccc(OC)c(C(=O)NCC2CCCN2CC2=CCCCC2)c1 (stereo not shown) , its LD50 was 540 to 558 mg/kg

// sample CCS(=O)(=O)c1cc(C(=O)NCC2CCCN2CC2=CCCC2)c(OC)cc1N (stereo not shown) , its LD50 was 980 to 990 mg/kg

// sample CCS(=O)(=O)c1cc(OC)c(OC)c(C(=O)NCC2CCCN2CC2CC2)c1 (stereo not shown) [Example 16, hydrochloride] , its LD50 was 588 to 598 mg/kg

// sample COc1cc(S(N)(=O)=O)cc(C(=O)NCC2CCCN2CC2CC2)c1OC (stereo not shown) , its LD50 was 2280 mg/kg

// sample CCS(=O)(=O)c1cc(C(=O)NCC2CCCN2CC2CC2)c(OC)cc1N (stereo not shown) , its LD50 was 1260 to 1320 mg/kg

// sample COc1ccc(S(N)(=O)=O)cc1C(=O)NCC1CCCN1CC1=CCCCC1 (stereo not shown) , its LD50 was 525 to 542 mg/kg

// sample CCS(=O)(=O)c1cc(C(=O)NCC2CCCN2CC2CCCCC2)c(OC)cc1N (stereo not shown) , its LD50 was 348 to 380 mg/kg

###

experiment: acute toxicity in the mouse; details: in vivo, ip, I.P. (intraperitoneal)
Counter-ions that a name gives are not always drawn.
OBSERVABLE: LD50

// sample COc1cc(S(N)(=O)=O)cc(C(=O)NCC2CCCN2CC2CC2)c1OC (centres unmarked) [Example 4] , its LD50 was 372 to 403 mg/kg

// sample CCS(=O)(=O)c1cc(OC)c(OC)c(C(=O)NCC2CCCN2CC2CC2)c1 (centres unmarked) [Example 16, hydrochloride] , its LD50 was 303 to 338 mg/kg

// sample CCS(=O)(=O)c1cc(C(=O)NCC2CCCN2CC2=CCCC2)c(OC)cc1N (centres unmarked) [Example 10] , its LD50 was 204 to 212 mg/kg

// sample CNS(=O)(=O)c1ccc(OC)c(C(=O)NCC2CCCN2CC2=CCCCCC2)c1 (centres unmarked) [Example 13] , its LD50 was 128 to 140 mg/kg

// sample CNS(=O)(=O)c1cc(OC)c(OC)c(C(=O)NCC2CCCN2CC2=CCCCC2)c1 (centres unmarked) [Example 12] , its LD50 was 198 to 200 mg/kg

###

assay: acute toxicity in the mouse; conditions: in vivo, ip, I.P. (intraperitoneal)
Exercise: state measured LD50 for each of the compounds provided.

// sample CCS(=O)(=O)c1cc(C(=O)NCC2CCCN2CC2CCCCC2)c(OC)cc1N (centres unmarked) , its LD50 was 133 to 145 mg/kg

// sample COc1ccc(S(N)(=O)=O)cc1C(=O)NCC1CCCN1CC1=CCCCC1 (centres unmarked) , its LD50 was 294 to 317 mg/kg

// sample CCS(=O)(=O)c1cc(C(=O)NCC2CCCN2CC2=CCCCC2)c(OC)cc1N (centres unmarked) , its LD50 was 180 to 181 mg/kg

// sample CCS(=O)(=O)c1cc(C(=O)NCC2CCCN2CC2CC2)c(OC)cc1N (centres unmarked) , its LD50 was 204 to 220 mg/kg

// sample CNS(=O)(=O)c1ccc(OC)c(C(=O)NCC2CCCN2CC2=CCCCC2)c1 (centres unmarked) , its LD50 was 204 to 208 mg/kg
